Please respond with reported WEE1 Guava MEC Guava MEC for every item in the list.
- SUBJECT OF TEST: WEE1 (Homo sapiens, UniProt P30291)
- Construct: Drug treated cells are fixed and stained with propidium iodide (PI); endogenous in cells
- Sequence (P30291 whole entry): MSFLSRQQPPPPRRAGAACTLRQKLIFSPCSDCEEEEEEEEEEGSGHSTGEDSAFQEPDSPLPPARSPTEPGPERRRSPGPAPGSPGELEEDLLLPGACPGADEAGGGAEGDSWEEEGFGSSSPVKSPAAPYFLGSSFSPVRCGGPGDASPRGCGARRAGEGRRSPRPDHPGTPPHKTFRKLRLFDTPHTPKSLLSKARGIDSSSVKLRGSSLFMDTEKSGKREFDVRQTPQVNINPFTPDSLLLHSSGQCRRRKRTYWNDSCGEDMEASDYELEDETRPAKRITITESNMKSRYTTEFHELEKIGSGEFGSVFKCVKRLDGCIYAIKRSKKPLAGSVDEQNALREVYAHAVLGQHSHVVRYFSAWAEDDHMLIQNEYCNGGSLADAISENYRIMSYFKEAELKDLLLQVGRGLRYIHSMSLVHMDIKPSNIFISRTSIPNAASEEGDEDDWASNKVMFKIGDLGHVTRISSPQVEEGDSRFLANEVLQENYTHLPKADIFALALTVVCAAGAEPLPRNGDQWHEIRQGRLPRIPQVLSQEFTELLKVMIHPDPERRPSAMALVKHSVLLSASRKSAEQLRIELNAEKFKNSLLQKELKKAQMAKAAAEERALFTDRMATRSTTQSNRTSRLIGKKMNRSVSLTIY
- ASSAY NOTES: Guava flow cytometry cell cycle assay (DNA content per cell, propidium iodide)
- Type: cell-based
- REPORTED CONDITIONS: single agent; unit assumed
Give bare numbers, in µM.

# COMPOUND, UNIT ABBREV, WEE1 Guava MEC Guava MEC
records = [
    ("CN1CCN(c2ccc(Nc3ncc4c(=O)n(-c5c(Cl)cccc5Cl)cc(Br)c4n3)cc2)CC1", "µM", 0.625),
    ("CN1CCc2ccc(Nc3ncc4c(=O)n(-c5c(Cl)cccc5Cl)cc(Br)c4n3)cc2C1", "µM", 0.313),
]

Shift focus to the following entry.
Fill in reported WEE1 Guava MEC Guava MEC for this entry: O=c1c2cnc(Nc3ccc4c(c3)C(O)CC4)nc2c(Br)cn1-c1c(Cl)cccc1Cl (stereo not shown)
5

---

- SUBJECT OF TEST: WEE1 (Homo sapiens, UniProt P30291)
- Construct: Drug treated cells are fixed and stained with propidium iodide (PI); endogenous in cells
- ASSAY NOTES: Guava flow cytometry cell cycle assay (DNA content per cell, propidium iodide)
- Type: cell-based
- REPORTED CONDITIONS: single agent; unit assumed
Please respond with reported WEE1 Guava MEC Guava MEC for every item in the list.
Answers are plain numbers, in µM.

# MOLECULE, UNIT ABBREV, WEE1 Guava MEC Guava MEC
rows = [
    ("Cc1ccc(Cl)c(-n2cc(Br)c3nc(Nc4cnn(C5CCN(C)CC5)c4)ncc3c2=O)c1Cl", "µM", 5),
]

Could I get WEE1 Guava MEC Guava MEC for every one of these entries?
1. O=c1c2cnc(Nc3ccc4c(c3)CNCC43CC3)nc2c(Br)cn1-c1c(Cl)cccc1Cl
2. CN1CCC(n2cc(Nc3ncc4c(=O)n(-c5c(Cl)cccc5Cl)cc(Br)c4n3)cn2)CC1 [Compound P1]
3. Cc1cc(Cl)c(-n2cc(Br)c3nc(Nc4cnn(C5CCNCC5)c4)ncc3c2=O)c(Cl)c1
4. Cc1cccc(F)c1-n1cc(Br)c2nc(Nc3cnn(C4CCN(C)CC4)c3)ncc2c1=O
5. C=C(C)c1cn(-c2c(Cl)cccc2Cl)c(=O)c2cnc(Nc3cnn(C4CCNCC4)c3)nc12
6. C=C(C)c1cn(-c2c(Cl)cccc2Cl)c(=O)c2cnc(Nc3cnn(C4CCN(C)CC4)c3)nc12

1. 0.313
2. 0.625
3. 2.5
4. 5
5. 5
6. 2.5

---

- SUBJECT OF TEST: WEE1 (Homo sapiens, UniProt P30291)
- Construct: Drug treated cells are fixed and stained with propidium iodide (PI); endogenous in cells
- ASSAY NOTES: Guava flow cytometry cell cycle assay (DNA content per cell, propidium iodide)
- Format: cell-based
- REPORTED CONDITIONS: with 20 nM GEM; in µM (unit assumed)
Please respond with reported WEE1 Guava MEC with 20 nM GEM for every item in the list.
Answers are plain numbers.

# COMPOUND, SUBJECT OF TEST, WEE1 Guava MEC with 20 nM GEM
measured = [
    ("CN1CCC(n2cc(Nc3ncc4c(=O)n(-c5c(Cl)cccc5Cl)cc(Br)c4n3)cn2)CC1 [Compound P1]", "WEE1 (Homo sapiens, UniProt P30291)", 0.156),
]

Could I get WEE1 Guava MEC with 20 nM GEM for every one of these entries?
1. O=c1c2cnc(Nc3ccc4c(c3)C(O)CC4)nc2c(Br)cn1-c1c(Cl)cccc1Cl (stereo not drawn)
2. Cc1cccc(F)c1-n1cc(Br)c2nc(Nc3cnn(C4CCNCC4)c3)ncc2c1=O
3. Cc1cc(Cl)c(-n2cc(Br)c3nc(Nc4cnn(C5CCN(C)CC5)c4)ncc3c2=O)c(Cl)c1
4. CN1CCc2ccc(Nc3ncc4c(=O)n(-c5c(Cl)cccc5Cl)cc(Br)c4n3)cc2C1
5. O=c1c2cnc(Nc3cnn(C4CCCNC4)c3)nc2c(Br)cn1-c1c(Cl)cccc1Cl (stereo not drawn)
6. CCc1cn(-c2c(Cl)cccc2Cl)c(=O)c2cnc(Nc3cnn(C4CCN(C)CC4)c3)nc12
7. CC(C)c1cn(-c2c(Cl)cccc2Cl)c(=O)c2cnc(Nc3cnn(C4CCN(C)CC4)c3)nc12
8. O=c1c2cnc(Nc3cnn(C4CCNCC4)c3)nc2c(C2CC2)cn1-c1c(Cl)cccc1Cl

1: 1.25; 2: 0.625; 3: 0.625; 4: 0.156; 5: 0.313; 6: 1.25; 7: 1.25; 8: 0.625
